# target_of_assay: Recombinant human mPGES-1 (Homo sapiens)
# Construct: made in house; host or cells: CHO cells (crude microsomal fractions)
# Sequence (O14684 1-152): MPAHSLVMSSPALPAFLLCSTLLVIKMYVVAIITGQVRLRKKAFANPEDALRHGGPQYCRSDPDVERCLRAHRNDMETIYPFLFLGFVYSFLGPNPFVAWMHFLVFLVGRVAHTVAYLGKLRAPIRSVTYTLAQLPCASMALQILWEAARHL
# run_description: In-vitro screening of mPGES-1 inhibitors (inhibition of PGE2 formation from PGH2, HTRF detection)
# Assay type: biochemical
# assay_context: 10 μM test compound; mPGES-1 enzyme, crude microsomal fractions; read-out: Percentage inhibition at 10 μM
readout_name: inhibition at 10 µM (%)

- O=c1[nH]c(-c2c(F)cccc2Cl)nn1-c1ccc(C#Cc2cc(Cl)ccc2Cl)cc1: 91.2
- O=C(NCc1ccc(Cl)c(-n2nc(-c3ccc(C#Cc4cccc(C(F)(F)F)c4)cc3F)[nH]c2=O)c1)C1CC1: 97.1
- O=C(NCc1ccc(Cl)c(-c2nn(-c3ccc(C(F)(F)F)cc3)c(=O)[nH]2)c1)[C@@H]1CCCO1: 97.2
- O=C(NCc1ccc(Cl)c(-n2nc(-c3ccc(C#Cc4cccc(Cl)c4F)cc3F)[nH]c2=O)c1)C1CC1: 98
- COc1cc(-n2nc(-c3c(Cl)cccc3Cl)[nH]c2=O)ccc1C(=O)Nc1cccc(C(F)(F)F)c1: 99.7
- COc1cc(-c2nn(-c3c(Cl)cccc3Cl)c(=O)[nH]2)ccc1C(=O)Nc1cc(C(F)(F)F)ccc1F: 91.5
- CC(C)(C)C(=O)NCc1ccc(Cl)c(-n2nc(-c3ccc(C#CC4CC4)cc3)[nH]c2=O)c1: 97.5

* * *

# target_of_assay: Recombinant human mPGES-1 (Homo sapiens, UniProt O14684)
# Construct: made in house; host or cells: CHO cells (crude microsomal fractions)
# run_description: In-vitro screening of mPGES-1 inhibitors (inhibition of PGE2 formation from PGH2, HTRF detection)
# Type: biochemical
# assay_context: 10 μM test compound; mPGES-1 enzyme, crude microsomal fractions; read-out: Percentage inhibition at 10 μM
readout_name: inhibition at 10 µM (%)

• COc1cc(-n2nc(-c3cc(CNC(=O)C4CC4)ccc3Cl)[nH]c2=O)ccc1C(=O)Nc1cccc(C(F)F)c1 = 96.4
• Cc1ccc(CNC(=O)C(C)(C)CF)c(C)c1-c1nn(-c2ccc(C#CC3CC3)cc2)c(=O)[nH]1 = 99.2
• CC(C)(C)C(=O)NCc1ccc(Cl)c(-n2nc(-c3ccc(C#CC4CC4)c(F)c3)[nH]c2=O)c1 = 100
• COc1cc(-n2nc(-c3c(F)cccc3Cl)[nH]c2=O)ccc1-c1nc(-c2ccc(Cl)cc2)no1 = 90.7

* * *

List of IC50 values.
# target_of_assay: Recombinant human mPGES-1 (Homo sapiens)
# run_description: In-vitro screening of mPGES-1 inhibitors (inhibition of PGE2 formation from PGH2, HTRF detection)
# assay_context: mPGES-1 enzyme; class symbols

* O=c1[nH]c(-c2c(F)cccc2Cl)nn1-c1ccc(C#Cc2ccncc2Cl)cc1 [Example-14] | 50 to 100 nM
* COc1cc(-n2nc(-c3c(F)cccc3Cl)[nH]c2=O)ccc1-c1nc(-c2ccc(Cl)cc2)no1 [Example-40] | < 50 nM
* CC(C)(C)C(=O)NCc1cc(-c2nn(-c3ccc(Cl)cc3)c(=O)[nH]2)c(Cl)cc1F [Example-126] | < 50 nM
* Cc1ccc(CNC(=O)C(C)(C)C)c(C)c1-c1nn(-c2ccc(C#CC3CC3)cc2)c(=O)[nH]1 [Example-165] | < 50 nM
* COc1cc(-n2nc(-c3c(F)cccc3Cl)[nH]c2=O)ccc1C(=O)NC1(c2ccccc2C(F)(F)F)CC1 [Example-26] | > 100 nM
* Cc1ccc(CNC(=O)C(C)C)c(C)c1-c1nn(-c2ccc(C#CC(C)(C)C)c(F)c2)c(=O)[nH]1 [Example-170] | < 50 nM

Then this compound:
Name the recorded IC50 of the item CC(C)(C)C(=O)NCc1cnc(C(F)F)c(-c2nn(-c3ccc(C(F)(F)F)cc3)c(=O)[nH]2)c1 [Example-186] in your answer.
< 50 nM
